System: SW-620
experiment.description: Cytotoxicity against human SW620 cells after 24 hrs by MTT assay
Type: functional, cell-based
settings: SW-620, 24 h
measurement.kind: IC50

For the 2 compounds below, give their IC50 values.
1. C=C(C)[C@@]1(O)[C@H](OC(=O)/C=C/C=C/CCCCC)[C@@H]2[C@@H]3O[C@]3(CO)[C@@H](O)[C@]3(O)C(=O)C(C)=C[C@H]3[C@@]2(O)[C@H](C)[C@H]1OC(=O)c1ccccc1 [YUANHUAOATE E]
2. C=C(C)[C@@]12O[C@@]3(/C=C/C=C/C=C\CCC)O[C@@H]1[C@@H]1[C@@H]4O[C@]4(CO)[C@@H](O)[C@]4(O)C(=O)C(C)=C[C@H]4[C@@]1(O3)[C@H](C)[C@H]2OC(C)=O

Result:
1: > 10 µM; 2: > 10 µM
